Consider the following compounds; for each one, report its IC50.
measured.on: SMYD3 (Homo sapiens (Human), UniProt Q9H7B4)
Sequence (Q9H7B4 whole entry): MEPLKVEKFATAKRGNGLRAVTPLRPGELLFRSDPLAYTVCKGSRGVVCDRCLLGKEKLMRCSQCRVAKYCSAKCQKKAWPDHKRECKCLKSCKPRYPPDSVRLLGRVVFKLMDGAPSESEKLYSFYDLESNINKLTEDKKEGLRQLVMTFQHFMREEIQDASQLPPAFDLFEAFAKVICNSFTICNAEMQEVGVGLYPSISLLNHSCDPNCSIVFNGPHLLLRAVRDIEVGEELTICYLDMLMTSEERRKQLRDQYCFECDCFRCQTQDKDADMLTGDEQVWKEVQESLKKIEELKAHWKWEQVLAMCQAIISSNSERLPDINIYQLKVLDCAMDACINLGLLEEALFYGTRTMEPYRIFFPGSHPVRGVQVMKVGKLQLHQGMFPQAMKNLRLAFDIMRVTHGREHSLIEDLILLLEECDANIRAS
experiment: SMYD3 cell assay (Trimethyl-MEKK2 In-Cell Western in 293T/17 cells)
Format: cell-based
condition.label: read-out: SMYD3 Cell IC50*
Description: Trimethyl-MEKK2-in-Cell Western Assay MEM/Glutamax medium, Optimem Reduced Serum medium, penicillin-streptomycin, 0.05% trypsin and 1×D-PBS were purchased from Life Technologies, Grand Island, N.Y., USA. […] Plasmids were prepared for delivery to cells by first mixing 1350 μL Opti-MEM with Fugene (81 μL) in a sterile Eppendorf and incubated for five minutes at room temperature (RT). […] Room temperature MEM+10% Tet system FBS was added and cells were mixed gently, and counted using the Vi-cell. […]
Answers are plain numbers, in nM.

Would you please look over these solved cases?
{"compound": "O=C(N[C@H]1C[C@H]2CC[C@@H](C1)N2S(=O)(=O)NC1CCN(Cc2ccccc2)CC1)c1cc(C2CC2)on1 [compound 948]", "measured.on": "SMYD3 (Homo sapiens (Human), UniProt Q9H7B4)", "readout.number": 411}
{"compound": "CCc1cc(C(=O)N[C@H]2C[C@H]3CC[C@@H](C2)N3S(=O)(=O)CC2CCN(CCCC(F)(F)F)CC2)no1 [compound 779]", "measured.on": "SMYD3 (Homo sapiens (Human), UniProt Q9H7B4)", "readout.number": 28.1}
{"compound": "CC1CN(S(=O)(=O)N2[C@@H]3CC[C@H]2C[C@@H](NC(=O)c2cc(C4CC4)on2)C3)CCC1N (some centres unmarked) [compound 831]", "measured.on": "SMYD3 (Homo sapiens (Human), UniProt Q9H7B4)", "readout.number": 85.1}

Would you mind listing IC50 for each of the following compounds?
1. CC(C)CN1C2CCC1CN(S(=O)(=O)N1[C@@H]3CC[C@H]1C[C@@H](NC(=O)c1cc(C4CC4)on1)C3)C2 [compound 866]
2. O=C(N[C@H]1C[C@H]2CC[C@@H](C1)N2S(=O)(=O)N1CC2CCC(C1)N2CCCO)c1cc(C2CC2)on1 [compound 850]
3. CN(CCCN1CCOCC1)C1CCN(S(=O)(=O)N2[C@@H]3CC[C@H]2C[C@@H](NC(=O)c2cc(C4CC4)on2)C3)CC1 [compound 936]
4. CCC[C@H]1C[C@@H](NC(=O)c2cc(C3CC3)on2)CCN1S(=O)(=O)CCCN [compound 806]
5. CC1CC(N)CCN1S(=O)(=O)N1[C@@H]2CC[C@H]1C[C@@H](NC(=O)c1cc(C3CC3)on1)C2 (some centres unmarked) [compound 803]

[reply]
[201, 58.8, 623, 113, 59]

The measurements presented in this section are drawn from patent US10577363B2.
